# system-tested: human SOS1 (loading of human K-Ras^G12C-GDP with fluorescent GTP-analog) (Homo sapiens, UniProt Q07889)
# procedure-text: Biochemical assay 3: K-Ras^G12C activation assay by hSOS1 (HTRF)
# stated-conditions: no GTP; read-out: Assay 3 (KRAS-Activation by SOS no GTP) activity expressed as IC50
pIC50: −log10 of the molar value.
Think of 6 as a floor: if pIC50 stands on it or above, it is criterion met; beneath it, criterion not met.

| compound | answer-label |
| --- | --- |
| COc1cc2nc(C)nc(NC(C)c3ccc(-c4ccc(CN)s4)s3)c2cc1OC (stereo not drawn) [Example 276] | criterion not met |
| COc1cc2nc(C)nc(N[C@H](C)c3cccc(-c4cn[nH]c4C)c3)c2cc1OC [Example 335] | criterion met |
| CCOc1ccccc1-c1ccc(C(C)Nc2nc(C)nc3cc(OC)c(OC)cc23)s1 (stereo not drawn) [Example 232] | criterion not met |
| COc1cc2nc(C)nc(NC(C)c3ccc(-c4ccc(F)cc4CNC(=O)c4cc[nH]n4)s3)c2cc1OC (stereo not drawn) [Example 310] | criterion not met |
